Test: activity coefficient (dimensionless); of the first substance listed, at infinite dilution; xn = mol fraction of the nth substance listed
Settings: 322.85 K; Liquid; Chromatography; x1 = 0
REPORTED METRIC: activity coefficient

>>> measurement("C#CCCCCC [1-heptyne] + CCCCCCCC[N+](C)(C)C.O=S(=O)([N-]S(=O)(=O)C(F)(F)F)C(F)(F)F")
2.48
>>> measurement("CC(C)CO [2-methyl-1-propanol] + CCCCCCCC[N+](CCCCCCCC)(CCCCCCCC)CCCCCCCC.O=S(=O)([N-]S(=O)(=O)C(F)(F)F)C(F)(F)F")
1.17
>>> measurement("Cc1ccc(C)cc1 [1,4-dimethylbenzene] + CCCCCCCCCC[N+](C)(C)C.O=S(=O)([N-]S(=O)(=O)C(F)(F)F)C(F)(F)F")
1.12
>>> measurement("C1CCCCCC1 [cycloheptane] + CCCCCCCCCC[N+](C)(C)C.O=S(=O)([N-]S(=O)(=O)C(F)(F)F)C(F)(F)F")
7.7
>>> measurement("CCN(CC)CC [triethylamine] + CCCCCCCC[N+](CCCCCCCC)(CCCCCCCC)CCCCCCCC.O=S(=O)([N-]S(=O)(=O)C(F)(F)F)C(F)(F)F")
1.03
>>> measurement("Cc1ccccc1 [toluene] + CCCCCCCC[N+](CCCCCCCC)(CCCCCCCC)CCCCCCCC.O=S(=O)([N-]S(=O)(=O)C(F)(F)F)C(F)(F)F")
0.47

Reference source: the NIST ThermoML archive (doi:10.1021/je200637v)
